Target: LHRH receptors (Rattus norvegicus)
Sequence (P30969 whole entry): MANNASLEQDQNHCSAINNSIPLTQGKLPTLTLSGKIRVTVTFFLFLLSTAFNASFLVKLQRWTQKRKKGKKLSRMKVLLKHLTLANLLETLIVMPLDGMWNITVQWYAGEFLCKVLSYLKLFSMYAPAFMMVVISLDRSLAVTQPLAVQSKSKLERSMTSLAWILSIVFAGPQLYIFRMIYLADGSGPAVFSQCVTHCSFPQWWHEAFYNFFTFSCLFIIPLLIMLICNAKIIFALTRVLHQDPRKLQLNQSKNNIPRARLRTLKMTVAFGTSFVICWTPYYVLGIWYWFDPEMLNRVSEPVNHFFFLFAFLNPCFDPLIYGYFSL
Assay: Radioligand receptor binding assay, rat pituitary membranes
Details: radioiodinated [D-Leu6-des Gly10]-LHRH ethyl amide 50 pM, 2 hours at 4° C., read-out: Receptor Binding pkI (converted)
Non-standard residues stand in square brackets, D forms with d. Residues, ends and D or L forms follow the SMILES beside them. *: point of attachment. dAla(4-thiazolyl) = N[C@H](Cc1cscn1)C(=O)O; dPhe(4-Cl) = N[C@H](Cc1ccc(Cl)cc1)C(=O)O; d2Nal = N[C@H](Cc1ccc2ccccc2c1)C(=O)O; dLys(iPr) = CC(C)NCCCC[C@@H](N)C(=O)O; Lys(iPr) = CC(C)NCCCC[C@H](N)C(=O)O; NMeY = CN[C@@H](Cc1ccc(O)cc1)C(=O)O; dBta = N[C@H](Cc1csc2ccccc12)C(=O)O; d3Pal = N[C@H](Cc1cccnc1)C(=O)O; d2Thi = N[C@H](Cc1cccs1)C(=O)O; NMeL = CN[C@@H](CC(C)C)C(=O)O; Nicotinoyl = O=C(c1cccnc1)*
Consider the following compounds and their measured Ki readings.
outcome-measure: Ki (nM)

CC(=O)N[C@H](Cc1ccc(Cl)cc1)C(=O)N[C@H](Cc1ccc(Cl)cc1)C(=O)N[C@H](Cc1csc2ccccc12)C(=O)N[C@@H](CO)C(=O)N(C)[C@@H](Cc1ccc(O)cc1)C(=O)N[C@H](CCCCNC(C)C)C(=O)N[C@@H](CC(C)C)C(=O)N[C@@H](CCCNC(=N)N)C(=O)N1CCC[C@H]1C(=O)N[C@H](C)C(N)=O [Ex. 60] (Ac-[dPhe(4-Cl)][dPhe(4-Cl)][dBta]S[NMeY][dLys(iPr)]LRP[dA]-NH2) :: 0.0229
CC(=O)N[C@H](Cc1ccc2ccccc2c1)C(=O)N[C@H](Cc1ccc(Cl)cc1)C(=O)N[C@H](Cc1cscn1)C(=O)N[C@@H](CO)C(=O)N(C)[C@@H](Cc1ccc(O)cc1)C(=O)N[C@H](CCCCNC(=O)c1cccnc1)C(=O)N[C@@H](CC(C)C)C(=O)N[C@@H](CCCCNC(C)C)C(=O)N1CCC[C@H]1C(=O)N[C@H](C)C(N)=O [Ex. 43] (Ac-[d2Nal][dPhe(4-Cl)][dAla(4-thiazolyl)]S[NMeY][dK](Nicotinoyl)L[Lys(iPr)]P[dA]-NH2) :: 0.0339
CC(=O)N[C@H](Cc1ccc2ccccc2c1)C(=O)N[C@H](Cc1ccc(Cl)cc1)C(=O)N[C@H](Cc1cccnc1)C(=O)N[C@@H](CO)C(=O)N(C)[C@@H](Cc1ccc(O)cc1)C(=O)N[C@H](CCCCNC(=O)c1cccnc1)C(=O)N(C)[C@@H](CC(C)C)C(=O)N[C@@H](CCCCNC(C)C)C(=O)N1CCC[C@H]1C(=O)N[C@H](C)C(N)=O [Ex. 67] (Ac-[d2Nal][dPhe(4-Cl)][d3Pal]S[NMeY][dK](Nicotinoyl)[NMeL][Lys(iPr)]P[dA]-NH2) :: 0.0302
CC(=O)N[C@H](Cc1ccc(Cl)cc1)C(=O)N[C@H](Cc1ccc(Cl)cc1)C(=O)N[C@H](Cc1ccc2ccccc2c1)C(=O)N[C@@H](CO)C(=O)N(C)[C@@H](Cc1ccc(O)cc1)C(=O)N[C@H](CCCCNC(=O)c1cccnc1)C(=O)N(C)[C@@H](CC(C)C)C(=O)N[C@@H](CCCNC(=N)N)C(=O)N1CCC[C@H]1C(=O)N[C@H](C)C(N)=O [Ex. 57] (Ac-[dPhe(4-Cl)][dPhe(4-Cl)][d2Nal]S[NMeY][dK](Nicotinoyl)[NMeL]RP[dA]-NH2) :: 0.372
CC(=O)N[C@H](Cc1ccc(Cl)cc1)C(=O)N[C@H](Cc1ccc(Cl)cc1)C(=O)N[C@H](Cc1cccs1)C(=O)N[C@@H](CO)C(=O)N(C)[C@@H](Cc1ccc(O)cc1)C(=O)N[C@H](CCCCN)C(=O)N(C)[C@@H](CC(C)C)C(=O)N[C@@H](CCCNC(=N)N)C(=O)N1CCC[C@H]1C(=O)N[C@H](C)C(N)=O [Ex. 45] (Ac-[dPhe(4-Cl)][dPhe(4-Cl)][d2Thi]S[NMeY][dK][NMeL]RP[dA]-NH2) :: 0.0138

All values here come from patent US5110904A.
